# TARGET_UNDER_TEST: Corticotropin-releasing factor receptor 1 (Homo sapiens)
# Sequence (P34998 whole entry): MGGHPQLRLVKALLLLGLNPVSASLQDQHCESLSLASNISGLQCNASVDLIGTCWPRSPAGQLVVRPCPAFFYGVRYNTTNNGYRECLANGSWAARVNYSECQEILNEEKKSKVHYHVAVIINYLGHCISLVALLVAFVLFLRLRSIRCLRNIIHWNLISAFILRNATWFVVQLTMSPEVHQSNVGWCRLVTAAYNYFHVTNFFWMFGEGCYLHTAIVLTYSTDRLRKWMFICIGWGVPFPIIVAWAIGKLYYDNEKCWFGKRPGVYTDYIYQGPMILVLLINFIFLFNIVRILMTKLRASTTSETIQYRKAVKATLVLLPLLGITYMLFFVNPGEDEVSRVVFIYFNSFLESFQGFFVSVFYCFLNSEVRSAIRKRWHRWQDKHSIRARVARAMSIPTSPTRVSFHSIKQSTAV
# TEST_NAME: Inhibition of [125I]CRF binding to human Corticotropin releasing factor receptor 1 tested at 6-12 doses
METRIC: Ki
In your response, the unit should come after the numeric value.

[
  {
    "MOL_SMILES": "CCCN(CC1CC1)c1nc(C)nc(Nc2c(Cl)cc(Cl)cc2Cl)c1Cl",
    "Ki": "1.7 nM"
  },
  {
    "MOL_SMILES": "CCCN(CC1CC1)c1nc(C)nc(Nc2c(Cl)cc(Cl)cc2Cl)c1C",
    "Ki": "2.3 nM"
  }
]

Now consider a different compound.
Q: So what does the record say about Ki for `CCCN(CC1CC1)c1cc(C)nc(Nc2c(Cl)cc(Cl)cc2Cl)n1` ?
Result: 70 nM
